- target.or.test.system: dopamine transporter (DAT) (Homo sapiens, UniProt Q01959)
- Construct: gene SLC6A3; human recombinant, CHO cells
- Sequence (Q01959 whole entry): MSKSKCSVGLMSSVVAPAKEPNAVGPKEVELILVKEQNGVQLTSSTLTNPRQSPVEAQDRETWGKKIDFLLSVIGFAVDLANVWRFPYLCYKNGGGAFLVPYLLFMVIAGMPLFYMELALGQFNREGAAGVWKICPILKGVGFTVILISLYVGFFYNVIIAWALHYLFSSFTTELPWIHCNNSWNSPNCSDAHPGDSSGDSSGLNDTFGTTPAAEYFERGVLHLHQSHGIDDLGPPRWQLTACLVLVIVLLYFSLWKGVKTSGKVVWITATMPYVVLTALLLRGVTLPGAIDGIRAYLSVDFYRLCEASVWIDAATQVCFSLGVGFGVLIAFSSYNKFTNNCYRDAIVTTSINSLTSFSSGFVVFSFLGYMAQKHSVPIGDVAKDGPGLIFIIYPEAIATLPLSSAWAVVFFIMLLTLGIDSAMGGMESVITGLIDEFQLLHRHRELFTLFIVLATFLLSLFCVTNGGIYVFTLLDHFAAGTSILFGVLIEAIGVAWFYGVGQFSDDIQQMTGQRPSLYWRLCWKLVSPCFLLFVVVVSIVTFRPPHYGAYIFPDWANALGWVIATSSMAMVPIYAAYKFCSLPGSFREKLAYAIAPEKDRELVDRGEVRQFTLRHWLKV
- experiment.summary: Cerep DAT affinity assay, human recombinant CHO cells (called radioligand in the Discussion, functional in Methods)
- Type: binding
endpoint: Ki
A complete answer gives the number and then names the unit.

# input Report Ki for Cc1[nH]c2ccc(Cl)cc2c1C1=CCNCC1
# output 41 nM
